# targetSystem: T1, cynomolgus monkey CD22 on B cells of cynomolgus PBMCs (cynomolgus monkey)
# T1 construct: whole, on cells; also called cynomolgus CD22; Cyno CD22
# protocol: flow cytometry; Alexa Fluor 647-labelled antibody on CD20+ B cells of cynomolgus PBMCs; further: test concentration or dose not given here
# Experimental: Binding of humanized anti-CD22 antibodies to human or cynomolgus PBMCs was measured by flow cytometry. Trima residuals were received from Vitalant and cynomolgus monkey whole blood were received from BioIVT. Both were diluted 1:4 with Phosphate Buffered Saline (PBS, Gibco). […] Cells were analyzed on Attune NxT Flow Cytometer (Thermo Fisher), with subsequent data analysis by Flowjo 10.7 (Treestar). […] CD20+ cells were gated to identify B cells and median fluorescent intensity for CD22 was determined.
Criterion: CD22 Median Fluorescent Intensity on CD20+ cells strictly under 1000. Met: label 1. Not met: label 0.

Look over these answered cases.
TNT73 (antibody, human IgG1, kappa, V domains shown) VH: EVQLVESGGGLVQPGGSLRLSCAASGFAFSIYDMSWVRQAPGKGLEWVAYISSGGGTTYYPDTVKGRFTISRDNSKNTLYLQMNSLRAEDTAVYYCARHSGYGTHWGVLFAYWGRGTLVTVSS VL: DIQMTQSPSSVSASVGDRVTITCRASQDIHGYLAWYQQKPGKAPKLLIYYTSSLQSGVPSRFSGSGSGTDFTLTISSLQPEDFATYYCQQGNTLPWTFGQGTKLEIKR = label 1
TNT75 (antibody, human IgG1, kappa, V domains shown) VH: EVQLVESGGGLVQPGGSLRLSCAASGFTFSSYEMNWVRQAPGKGLEWVSYISSSGSTIYYADSVKGRFTISRDNAKNSLYLQMNSLRAEDTAVYYCARHSGYGTHWGVLFAYWGRGTLVTVSS VL: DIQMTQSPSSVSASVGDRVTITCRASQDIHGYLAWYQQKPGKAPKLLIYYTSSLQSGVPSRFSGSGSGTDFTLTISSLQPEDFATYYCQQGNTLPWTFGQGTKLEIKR = label 1
TNT86 (antibody, human IgG1, kappa, V domains shown) VH: QVQLLESGGGVVQPGGSLRLSCAASGFAFSIYDMNWVRQAPGKGLEWVSAISSGGGTTYYADSVKGRFTISRDNAKNSLYLQMNSLRAEDTAVYYCARHSGYGTHWGVLFAYWGRGTLVTVSS VL: DIVMTQTPLSLSVTPGQPASISCRASQDIHGYLNWYQQKPGQSPQLLIYYTSILHSGVPDRFSGSGSGTDFTLKISRVEAEDVGVYFCQQGNTLPWTFGGGTKLEIKR = label 0
TNT70 (antibody, human IgG1, kappa, V domains shown) VH: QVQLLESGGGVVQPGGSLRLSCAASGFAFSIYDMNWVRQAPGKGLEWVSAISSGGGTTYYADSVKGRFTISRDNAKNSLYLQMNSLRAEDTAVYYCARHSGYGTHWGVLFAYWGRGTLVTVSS VL: DIQMTQSPSSLSASVGDRVTITCRASQDIHGYLNWYQQKPGKAPKLLIYYTSILHSGVPSRFSGSGSGTDFTLTISSLQPEDFATYFCQQGNTLPWTFGQGTKLEIKR = label 0

# next binder below
# strict comparison: is reported CD22 Median Fluorescent Intensity on CD20+ cells < 1000? input = TNT72 (antibody, human IgG1, kappa, V domains shown) VH: QVQLQESGPGLVKPSDTLSLTCTVSGFAFSIYDMSWIRQPPGKGLEWIAYISSGGGTTYYNPSLKSRVTISVDTSKNQFSLKLSSVTAADTAVYYCARHSGYGTHWGVLFAYWGRGTLVTVSS VL: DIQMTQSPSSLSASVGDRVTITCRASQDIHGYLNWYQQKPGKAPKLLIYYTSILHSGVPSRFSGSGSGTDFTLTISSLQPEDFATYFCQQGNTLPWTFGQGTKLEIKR
label 0
